# runDescription: Cytotoxicity, Resazurin assay
# Assay type: cell-based, monkey
# setupConditions: monkey, Resazurin assay, 72 h; read-out: In vitro cytotoxicity Vero cells CC50
readoutType: CC50 at 72 h

[
  {
    "smilesData": "COc1cccc2c1CCCC2=NNc1nc(-c2ccc(F)cc2)cs1",
    "CC50 at 72 h": "> 244 µM"
  }
]

Note: attention shifts to another entry.
Input: Tell me measured CC50 at 72 h for `COc1ccc(-c2csc(NN=C3CCCc4c(OC)cccc43)n2)cc1OC` please.
Output: > 244 µM

====

# Test system: Vero monkey kidney cells
# runDescription: Cytotoxicity, Resazurin assay
# Type: cell-based
# setupConditions: Resazurin assay, 72 h; read-out: In vitro cytotoxicity Vero cells CC50
readoutType: CC50

Input: State its CC50 for this compound: `COc1cccc2c1CCCC2=NNc1nc(-c2ccc(F)cc2)cs1`
Output: > 300 µM

====

Each record here notes measured melting point.
Respond with the bare value in °C.

Look over these answered cases.
[
  {
    "smilesData": "COc1ccc(OC)c(Nc2nc(-c3cccc([N+](=O)[O-])c3)cs2)c1",
    "readoutType": "melting point",
    "unitsText": "°C",
    "observed": 154
  },
  {
    "smilesData": "COc1cccc2c1CCCC2=NNc1nc(-c2ccc(Cl)cc2Cl)cs1",
    "readoutType": "melting point",
    "unitsText": "°C",
    "observed": 200
  },
  {
    "smilesData": "COc1cccc2c1CCCC2=NNc1nc(-c2cccc([N+](=O)[O-])c2)cs1",
    "readoutType": "melting point",
    "unitsText": "°C",
    "observed": 185
  }
]

Input: Output melting point of `O=[N+]([O-])c1cccc(-c2csc(Nc3ccccc3C(F)(F)F)n2)c1`
Output: 182

Input: Tell us which melting point value is on record for `COc1ccc(-c2csc(NN=C3CCCc4c(OC)cccc43)n2)cc1OC`
Output: 200

Input: Give the reported melting point for this compound. `COc1cccc2c1CCCC2=NNc1nc(-c2ccc(F)cc2)cs1`
Output: 198

Input: Find the measured melting point of `Fc1ccc(Nc2nc(-c3ccc(F)cc3)cs2)cc1` and report it.
Output: 127

Input: Determine from records and report melting point for `Clc1ccc(Cn2cc(C=NNc3nc(-c4ccc(Cl)cc4Cl)cs3)c3ccccc32)c(Cl)c1`
Output: 185

Input: Please supply the value of reported melting point for the item `COc1ccc(-c2csc(Nc3ccccc3C(F)(F)F)n2)cc1OC`
Output: 188

Input: Tell me its melting point given `COc1ccc(-c2csc(Nc3cc(OC)ccc3OC)n2)cc1` as the entry.
Output: 104

Input: State its melting point: `Fc1ccc(-c2csc(Nc3ccccc3C(F)(F)F)n2)cc1`
Output: 184

Input: Output melting point of `COc1ccc(OC)c(Nc2nc(-c3ccc(F)cc3)cs2)c1`
Output: 160

Input: Supply measured melting point of `COc1ccc(-c2csc(NN=Cc3cn(Cc4ccc(Cl)cc4Cl)c4ccccc34)n2)cc1OC` in your reply.
Output: 205

Input: Please give measured melting point of the following entry: `Fc1ccc(-c2csc(NN=Cc3cn(Cc4ccc(Cl)cc4Cl)c4ccccc34)n2)cc1`
Output: 198
